This collection of values is drawn from paper PMC5715787.

Below is a list of entries, each paired with its recorded Kd value.
Biological target: Fab311
Assay: ITC affinity measurement of peptides to Fab311
Assay type: binding, human
Settings: ITC, 25 °C, Dulbecco's PBS, Fab311 10.3 μM in cell, peptide 89–122 μM in syringe, single-site model; average and SD of triplicate experiments
Form entry: value (µM) — number only.

Lab note: Fab311 assay, enter Kd for Ac-NPNVDPNANPNV-NH2 [NPNVDPNANPNV, Ac-NPNVDPNANPNV-NH2] here
1.79

Here is the next item to consider.
Give Kd only, for Ac-DPNANPNVDPNA-NH2 [DPNANPNVDPNA, Ac-DPNANPNVDPNA-NH2] , using Fab311 data.
1.37

###

Molecular target: Fab317
Test: ITC affinity measurement of peptides to Fab317
Type: binding, human
Conditions: ITC, 25 °C, Dulbecco's PBS, Fab317 9.7 μM in cell, peptide 110–122 μM in syringe, single-site model; average and SD of triplicate experiments
parameter: pKd
Expect pKd as a plain number equal to -log10 of the molar concentration.

Consider the substance Ac-DPNANPNVDPNA-NH2 [DPNANPNVDPNA, Ac-DPNANPNVDPNA-NH2] and give its recorded pKd.
6.35

###

Molecular target: Fab317
Test: ITC affinity measurement of peptides to Fab317
Format: binding, human
Conditions: ITC, 25 °C, Dulbecco's PBS, Fab317 9.7 μM in cell, peptide 89 μM in syringe, single-site model; duplicate experiments
parameter: pKd
API: returns pKd as number; meaning -log10 of concentration in mol/L.

Identify the reported pKd for the following entry. Ac-NPNVDPNANPNV-NH2 [NPNVDPNANPNV, Ac-NPNVDPNANPNV-NH2]
4.92
